Items are presented alongside their recorded melting point.

Please review the entries below; each comes with its answer.
So what does the record say about melting point for `C=C1C(=O)N(c2cc(OC)c(OC)c(OC)c2)[C@H]1c1ccc(OC)c(OC(=O)c2ccccc2)c1` ? 151 to 152 °C

So what does the record say about melting point for `C=CC(=O)Oc1cc([C@H]2C(=C)C(=O)N2c2cc(OC)c(OC)c(OC)c2)ccc1OC` ? 109 to 110 °C

So what does the record say about melting point for `C=C1C(=O)N(c2cc(OC)c(OC)c(OC)c2)[C@H]1c1ccc(OC)c(OC(=O)C2CC2)c1` ? 68 to 69 °C

Shift focus to the following entry.
So what does the record say about melting point for `C=C1C(=O)N(c2cc(OC)c(OC)c(OC)c2)[C@H]1c1ccc(OC)c(NC(=O)c2ccc([N+](=O)[O-])cc2)c1` ? 234 to 235 °C

====

Where a name gives a salt, the structure may show the parent alone.
experimental.endpoint: melting point

So what does the record say about melting point for C=C1C(=O)N(c2cc(OC)c(OC)c(OC)c2)[C@H]1c1ccc(OC)c(OCCN2CCOCC2)c1 [Compound 15] ? 86 to 87 °C

So what does the record say about melting point for C=C1C(=O)N(c2cc(OC)c(OC)c(OC)c2)[C@H]1c1ccc(OC)c(OS(=O)(=O)CCCC)c1 [Compound 31] ? 99 to 100 °C

So what does the record say about melting point for C=C1C(=O)N(c2cc(OC)c(OC)c(OC)c2)[C@H]1c1ccc(OC)c(OCC)c1 [Compound 3] ? 92 to 93 °C

Others:
So what does the record say about melting point for C=C1C(=O)N(c2cc(OC)c(OC)c(OC)c2)[C@H]1c1ccc(OC)c(C(=O)OC)c1 [Compound 40] ? 112 to 113 °C

So what does the record say about melting point for C=CCOc1cc([C@H]2C(=C)C(=O)N2c2cc(OC)c(OC)c(OC)c2)ccc1OC [Compound 6] ? 92 to 93 °C

So what does the record say about melting point for C=C1C(=O)N(c2cc(OC)c(OC)c(OC)c2)[C@H]1c1ccc(OC)c(OS(=O)(=O)Cc2ccccc2)c1 (as salt: methanesulfonate) [Compound 32] ? 58 to 59 °C

So what does the record say about melting point for C=C1C(=O)N(c2ccc(OC)cc2)[C@H]1c1ccc(OC)c(O)c1 [Compound 52] ? 180 to 181 °C

So what does the record say about melting point for C=C1C(=O)N(c2cc(OC)c(OC)c(OC)c2)[C@H]1c1ccc(OC)c(OS(=O)(=O)c2ccc(OC)c(OC)c2)c1 (as salt: benzenesulfonate) [Compound 33] ? 70 to 71 °C

So what does the record say about melting point for C=C1C(=O)N(c2cc(OC)c(OC)c(OC)c2)[C@H]1c1ccc(OC)c(OC(=O)c2cccnc2)c1 [Compound 22] ? 113 to 114 °C

So what does the record say about melting point for C=C1C(=O)N(c2cc(OC)c(OC)c(OC)c2)[C@H]1c1ccc(OC)c(OCc2ccccc2)c1 [Compound 47] ? 133 to 134 °C

So what does the record say about melting point for C=C1C(=O)N(c2cc(OC)c(OC)c(OC)c2)[C@H]1c1ccc(OC)c(OC(=O)c2ccc(F)cc2)c1 [Compound 20] ? 185 to 186 °C

====

System: MDA-MB-231
protocol.description: In vitro cell growth inhibition assay (MTT)
Format: cell-based, human
assay.context: MDA-MB-231 human breast cancer cell line, 48 h, MTT; read-out: IC50 MDA-MB-231
experimental.endpoint: IC50

Please review the entries below; each comes with its answer.
So what does the record say about IC50 for `C=CC(=O)Nc1cc([C@H]2C(=C)C(=O)N2c2cc(OC)c(OC)c(OC)c2)ccc1OC` ? 0.034 µM

So what does the record say about IC50 for `COC[C@@]1(OC)C(=O)N(c2cc(OC)c(OC)c(OC)c2)[C@H]1c1ccc(OC)c(O)c1` ? 2.65 µM

So what does the record say about IC50 for `C=C1C(=O)N(c2cc(OC)c(OC)c(OC)c2)[C@H]1c1ccc(OC)c(OCCCNC(=O)OCc2ccccc2)c1` ? > 10 µM

So what does the record say about IC50 for `C=C1C(=O)N(c2cc(OC)c(OC)c(OC)c2)[C@H]1c1ccc(OC)c(OCCC)c1` ? 5.62 µM

So what does the record say about IC50 for `C=CCOc1cc([C@H]2C(=C)C(=O)N2c2cc(OC)c(OC)c(OC)c2)ccc1OC` ? 0.883 µM

Others:
So what does the record say about IC50 for `COc1ccc([C@H]2[C@@H](CNCc3ccccc3)C(=O)N2c2cc(OC)c(OC)c(OC)c2)cc1O` ? 1.79 µM

So what does the record say about IC50 for `COc1ccc([C@H]2[C@@H](CO)C(=O)N2c2cc(OC)c(OC)c(OC)c2)cc1O` ? 0.182 µM

So what does the record say about IC50 for `COc1ccc([C@H]2[C@@H](C)C(=O)N2c2cc(OC)c(OC)c(OC)c2)cc1O` ? 0.067 µM

So what does the record say about IC50 for `C=C1C(=O)N(c2cc(OC)c(OC)c(OC)c2)[C@H]1c1ccc(OC)c(OCC(=O)OCC)c1` ? > 20 µM

So what does the record say about IC50 for `C=C1C(=O)N(c2cc(OC)c(OC)c(OC)c2)[C@H]1c1ccc(OC)c(OCCN2CCOCC2)c1` ? > 10 µM

So what does the record say about IC50 for `C=C1C(=O)N(c2cc(OC)c(OC)c(OC)c2)[C@H]1c1ccc(OC)c(OCC(=O)OC(C)(C)C)c1` ? > 10 µM

So what does the record say about IC50 for `C#CCOc1cc([C@H]2C(=C)C(=O)N2c2cc(OC)c(OC)c(OC)c2)ccc1OC` ? 1.2 µM
